- ASSAYED TARGET: Ku protein (Ku70/Ku80 heterodimer) (Homo sapiens, UniProt P12956;P13010 P12956:2-609,P13010:2-732)
- Sequence (P12956 2-609, chain 1 of 2): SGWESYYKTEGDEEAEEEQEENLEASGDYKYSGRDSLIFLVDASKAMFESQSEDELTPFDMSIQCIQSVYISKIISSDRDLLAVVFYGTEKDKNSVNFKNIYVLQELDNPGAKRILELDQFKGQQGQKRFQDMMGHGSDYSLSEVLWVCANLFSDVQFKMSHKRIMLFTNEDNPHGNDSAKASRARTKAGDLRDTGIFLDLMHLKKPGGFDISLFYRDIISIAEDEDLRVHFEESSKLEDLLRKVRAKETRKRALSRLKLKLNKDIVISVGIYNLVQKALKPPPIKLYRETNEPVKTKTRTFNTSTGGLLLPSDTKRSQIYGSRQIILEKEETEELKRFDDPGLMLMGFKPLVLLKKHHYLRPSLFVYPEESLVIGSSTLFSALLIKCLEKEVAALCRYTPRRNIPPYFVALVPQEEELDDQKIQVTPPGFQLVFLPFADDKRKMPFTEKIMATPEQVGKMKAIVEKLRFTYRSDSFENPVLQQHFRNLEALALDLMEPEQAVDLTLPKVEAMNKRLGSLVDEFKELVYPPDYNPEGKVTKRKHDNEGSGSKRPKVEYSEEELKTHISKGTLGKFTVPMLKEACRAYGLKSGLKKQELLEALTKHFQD
- Sequence (P13010 2-732, chain 2 of 2): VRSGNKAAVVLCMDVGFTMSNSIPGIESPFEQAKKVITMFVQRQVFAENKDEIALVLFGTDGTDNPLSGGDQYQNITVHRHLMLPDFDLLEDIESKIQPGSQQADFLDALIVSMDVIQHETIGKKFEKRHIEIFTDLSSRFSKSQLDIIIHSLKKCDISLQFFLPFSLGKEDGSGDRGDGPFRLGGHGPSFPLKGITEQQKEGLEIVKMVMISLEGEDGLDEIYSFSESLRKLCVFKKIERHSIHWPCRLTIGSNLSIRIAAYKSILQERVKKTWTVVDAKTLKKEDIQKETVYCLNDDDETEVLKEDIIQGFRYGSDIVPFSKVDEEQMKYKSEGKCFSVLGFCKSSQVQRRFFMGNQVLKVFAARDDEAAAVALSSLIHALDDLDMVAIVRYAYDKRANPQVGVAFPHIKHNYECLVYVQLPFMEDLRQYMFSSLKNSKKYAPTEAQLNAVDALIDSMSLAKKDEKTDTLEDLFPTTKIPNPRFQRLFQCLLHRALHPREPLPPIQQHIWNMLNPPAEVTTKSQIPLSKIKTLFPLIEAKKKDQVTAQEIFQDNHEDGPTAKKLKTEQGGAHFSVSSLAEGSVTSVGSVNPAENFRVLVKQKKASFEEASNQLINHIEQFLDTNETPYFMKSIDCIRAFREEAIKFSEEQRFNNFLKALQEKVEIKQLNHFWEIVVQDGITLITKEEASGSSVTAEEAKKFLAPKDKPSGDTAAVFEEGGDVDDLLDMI
- PROCEDURE TEXT: EMSA
- CONDITION SUMMARY: tags: none, purified from HeLa cell nuclear extracts
Exercise: for every item that follows, state its recorded Kd.
Quick reminder: number only, in nM, skip the unit.

For this binder ( #52 (ssRNA) RNA: GGGAGGAUAUUUUCUCAGACCGUAACUGAUCGUUCAAUGACUAUUCUUUACCUUGAGUAACCGAUUGCAGCAUCGUGAACUAGGAUC ), measured Kd is 3.2

According to the records, this binder #7-3 (ssRNA) RNA: GGGAGGAUAUUUUCUCAGACCGUAAAGGUCGGCAUACAGAGUUCCGAAUGCGCGUAACUUCGACUUUGCAGCAUCGUGAACUAGGAUC displays Kd of 1.8

The recorded Kd for entry SC6 (ssRNA) RNA: GGGAGGAUAUUUUCUCAGACCGUAAGACUCACGAUGGACCAUACGCCUUCCCACUGGUCUUGUUAUUGCAGCAUCGUGAACUAGGAUC equals 2

Data credit: patent US6441158
